- testSystem: EGFR (T790M, L858R) (h) (Homo sapiens (Human), UniProt P00533, L858R/T790M)
- Sequence (P00533 25-1210 T790M/L858R): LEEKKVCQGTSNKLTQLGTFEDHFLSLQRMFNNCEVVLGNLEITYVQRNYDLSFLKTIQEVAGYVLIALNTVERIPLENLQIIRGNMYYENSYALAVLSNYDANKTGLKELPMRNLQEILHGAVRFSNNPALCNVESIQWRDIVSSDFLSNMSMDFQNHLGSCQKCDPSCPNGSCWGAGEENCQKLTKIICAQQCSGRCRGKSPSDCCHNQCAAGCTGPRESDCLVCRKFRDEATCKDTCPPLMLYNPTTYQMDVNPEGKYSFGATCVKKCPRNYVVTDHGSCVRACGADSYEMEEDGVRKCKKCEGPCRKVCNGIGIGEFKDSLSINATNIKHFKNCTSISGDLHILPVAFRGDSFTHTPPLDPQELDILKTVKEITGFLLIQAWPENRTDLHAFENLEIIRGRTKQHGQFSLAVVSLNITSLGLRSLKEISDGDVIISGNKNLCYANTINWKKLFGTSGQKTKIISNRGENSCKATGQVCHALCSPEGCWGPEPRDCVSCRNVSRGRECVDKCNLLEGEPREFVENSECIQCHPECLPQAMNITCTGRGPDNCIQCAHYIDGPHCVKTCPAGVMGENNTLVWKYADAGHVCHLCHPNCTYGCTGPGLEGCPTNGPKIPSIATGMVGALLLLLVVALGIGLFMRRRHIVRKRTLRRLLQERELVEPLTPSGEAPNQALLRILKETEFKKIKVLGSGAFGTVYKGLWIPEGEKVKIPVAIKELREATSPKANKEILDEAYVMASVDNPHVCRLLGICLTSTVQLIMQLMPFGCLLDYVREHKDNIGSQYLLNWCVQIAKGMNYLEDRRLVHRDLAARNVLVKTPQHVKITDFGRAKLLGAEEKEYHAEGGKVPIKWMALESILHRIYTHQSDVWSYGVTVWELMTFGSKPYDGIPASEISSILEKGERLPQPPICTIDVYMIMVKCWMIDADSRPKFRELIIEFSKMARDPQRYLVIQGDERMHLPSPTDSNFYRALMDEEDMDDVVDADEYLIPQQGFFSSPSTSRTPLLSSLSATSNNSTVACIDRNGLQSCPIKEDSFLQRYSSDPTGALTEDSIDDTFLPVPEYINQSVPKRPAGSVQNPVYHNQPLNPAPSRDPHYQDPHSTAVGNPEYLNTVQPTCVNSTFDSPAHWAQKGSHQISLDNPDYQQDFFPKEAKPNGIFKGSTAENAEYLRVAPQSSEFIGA
- runDescription: Kinase assay, single dose inhibition (Millipore, 33P-ATP filter binding)
- Format: biochemical
- conditions: 0.1 μM test compound, 10 μM ATP; remaining activity relative to DMSO control = 100%
Reported Activity (control) % EGFR (T790M, L858R) (h) values follow for various compounds
The reply should be a number in %, with the unit left off.

| substanceSmiles | reported |
| --- | --- |
| C=C(CN1CCCCC1)C(=O)Nc1cccc(Nc2ncc(Cl)c(Nc3ccccc3C(=O)C(=O)N(C)C)n2)c1 | 3 |
| C=CC(=O)Nc1cc(Nc2ncc(Cl)c(Nc3ccccc3C(=O)C(=O)N(C)C)n2)ccc1N1CCN(C)CC1 | 11 |

EGFR (T790M, L858R) (h) (Homo sapiens (Human), UniProt P00533, L858R/T790M) data for "COc1cc(Nc2ncc(Cl)c(Nc3ccccc3C(=O)C(=O)N(C)C)n2)ccc1N1CCC(N(C)C)CC1" ; its Activity (control) % EGFR (T790M, L858R) (h): 2

EGFR (T790M, L858R) (h) (Homo sapiens (Human), UniProt P00533, L858R/T790M) data for "C=C(CN(C)CCN(C)C)C(=O)Nc1cccc(Nc2ncc(Cl)c(Nc3ccccc3C(=O)C(=O)N(C)C)n2)c1" ; its Activity (control) % EGFR (T790M, L858R) (h): 2

----------
Reported pIC50 values follow for various compounds
- Test system: A549 (EGFR WT) NSCLC cells
- runDescription: Cell proliferation assay (MTS cell viability)
- Assay type: cell-based
- conditions: Homo sapiens, 72 h; A549 cells, 3 days of exposure, MTS
pIC50: −log10 of the molar value.

| substanceSmiles | pIC50 |
| --- | --- |
| C=CC(=O)N1CCC(NC(=O)C(=O)c2ccccc2Nc2nc(Nc3ccc(F)c(OC)c3)ncc2Cl)CC1 | < 5.52 |
| COc1cc(N2CCN(C)CC2)ccc1Nc1ncc(Cl)c(Nc2ccccc2C(=O)C(=O)N2CCOCC2)n1 | < 5.52 |
| COc1cc(N2CCC(N(C)C)CC2)ccc1Nc1ncc(Cl)c(Nc2ccccc2C(=O)C(=O)NO)n1 | < 5.52 |
| C=CC(=O)Nc1cccc(Nc2ncc(Cl)c(Nc3ccccc3C(=O)C(=O)N(C)C)n2)c1 | 6.19 |
| CNC(=O)C(=O)c1ccccc1Nc1nc(Nc2ccc(N3CCN(C)CC3)c(OC)c2)ncc1Cl | 5.68 |

Measured pIC50 of "CNC(=O)C(=O)c1ccccc1Nc1nc(Nc2ccc(N3CCC(N(C)C)CC3)cc2OC)ncc1Cl" : < 5.52

Measured pIC50 of "COc1cc(Nc2ncc(Cl)c(Nc3ccccc3C(=O)C(=O)N(C)C)n2)ccc1N1CCC(N(C)C)CC1" : 5.72

----------
- testSystem: EGFR (h) (Homo sapiens (Human), UniProt P00533)
- Sequence (P00533 25-1210): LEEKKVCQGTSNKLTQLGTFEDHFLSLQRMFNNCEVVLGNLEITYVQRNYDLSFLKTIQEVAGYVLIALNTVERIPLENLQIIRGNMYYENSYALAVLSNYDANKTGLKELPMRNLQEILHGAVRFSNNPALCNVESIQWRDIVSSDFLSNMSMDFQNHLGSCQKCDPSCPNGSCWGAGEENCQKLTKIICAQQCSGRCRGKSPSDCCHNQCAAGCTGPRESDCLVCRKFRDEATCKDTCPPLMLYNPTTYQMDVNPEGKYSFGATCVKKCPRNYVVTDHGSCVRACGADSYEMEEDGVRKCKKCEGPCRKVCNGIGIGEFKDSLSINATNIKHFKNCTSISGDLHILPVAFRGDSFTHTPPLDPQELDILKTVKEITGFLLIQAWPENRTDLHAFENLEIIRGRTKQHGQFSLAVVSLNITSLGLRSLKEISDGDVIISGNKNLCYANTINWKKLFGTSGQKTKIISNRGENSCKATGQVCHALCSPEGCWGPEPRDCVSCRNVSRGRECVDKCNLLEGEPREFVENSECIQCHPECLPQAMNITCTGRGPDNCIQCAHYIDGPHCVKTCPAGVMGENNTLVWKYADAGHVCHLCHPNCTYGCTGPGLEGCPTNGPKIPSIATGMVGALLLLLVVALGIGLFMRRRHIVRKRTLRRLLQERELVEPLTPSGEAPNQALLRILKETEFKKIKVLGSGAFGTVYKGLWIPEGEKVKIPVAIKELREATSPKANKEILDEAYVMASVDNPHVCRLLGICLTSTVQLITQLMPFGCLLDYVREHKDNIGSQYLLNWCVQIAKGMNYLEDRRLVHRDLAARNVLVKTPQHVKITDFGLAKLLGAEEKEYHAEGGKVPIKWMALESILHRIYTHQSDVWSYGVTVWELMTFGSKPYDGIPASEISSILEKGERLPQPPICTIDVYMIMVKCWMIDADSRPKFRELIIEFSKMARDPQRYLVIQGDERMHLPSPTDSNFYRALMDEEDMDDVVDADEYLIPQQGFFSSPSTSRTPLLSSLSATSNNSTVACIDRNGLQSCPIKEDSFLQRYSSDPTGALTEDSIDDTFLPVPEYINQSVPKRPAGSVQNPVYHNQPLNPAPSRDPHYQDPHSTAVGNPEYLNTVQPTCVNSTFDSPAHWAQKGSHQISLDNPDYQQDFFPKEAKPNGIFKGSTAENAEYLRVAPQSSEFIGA
- runDescription: Kinase assay, single dose inhibition (Millipore, 33P-ATP filter binding)
- Format: biochemical
- conditions: 0.1 μM test compound, 10 μM ATP; remaining activity relative to DMSO control = 100%
measuredMetric: Activity (control) % EGFR (h) (%)
The reply should be a number in %, with the unit left off.

// worked examples, Activity (control) % EGFR (h) included
| compound | Activity (control) % EGFR (h) / % |
| --- | --- |
| COc1cc(N2CCC(N(C)C)CC2)ccc1Nc1ncc(Cl)c(Nc2ccccc2C(=O)C(N)=O)n1 [Example 4] | 65 |
| C=CC(=O)Nc1cc(Nc2ncc(Cl)c(Nc3ccccc3C(=O)C(=O)N(C)CCN(C)C)n2)ccc1OC [Example 102] | 98 |
| COc1cc(Nc2ncc(Cl)c(Nc3ccccc3C(=O)C(=O)N(C)C)n2)ccc1N1CCN(C)CC1 [Example 61] | 101 |
| C=CC(=O)Nc1cc(Nc2ncc(Cl)c(Nc3ccccc3C(=O)C(=O)N(CC)CC)n2)ccc1OC [Example 132] | 103 |
| C=CC(=O)Nc1ccc(OC)c(Nc2ncc(Cl)c(Nc3ccccc3C(=O)C(=O)N(CC)CC)n2)c1 [Example 131] | 104 |

Measured Activity (control) % EGFR (h) of C=C(CN1CCOCC1)C(=O)Nc1ccc(OC)c(Nc2ncc(Cl)c(Nc3ccccc3C(=O)C(=O)N(C)C)n2)c1 [Example 41] : 76

Measured Activity (control) % EGFR (h) of C=C(CN1CCCCC1)C(=O)Nc1cccc(Nc2ncc(Cl)c(Nc3ccccc3C(=O)C(=O)N(C)C)n2)c1 [Example 113] : 88

Measured Activity (control) % EGFR (h) of C=C(CN(C)CCN(C)C)C(=O)Nc1cccc(Nc2ncc(Cl)c(Nc3ccccc3C(=O)C(=O)N(C)C)n2)c1 [Example 125] : 106

Measured Activity (control) % EGFR (h) of C=CC(=O)Nc1ccc(OC2CCOC2)c(Nc2ncc(Cl)c(Nc3ccccc3C(=O)C(=O)N(C)C)n2)c1 (stereo not shown) [Example 136] : 99

----------
Reported Activity (control) % ALK (h) values follow for various compounds
- testSystem: ALK (h) (Homo sapiens (Human))
- Sequence (Q9UM73 19-1620): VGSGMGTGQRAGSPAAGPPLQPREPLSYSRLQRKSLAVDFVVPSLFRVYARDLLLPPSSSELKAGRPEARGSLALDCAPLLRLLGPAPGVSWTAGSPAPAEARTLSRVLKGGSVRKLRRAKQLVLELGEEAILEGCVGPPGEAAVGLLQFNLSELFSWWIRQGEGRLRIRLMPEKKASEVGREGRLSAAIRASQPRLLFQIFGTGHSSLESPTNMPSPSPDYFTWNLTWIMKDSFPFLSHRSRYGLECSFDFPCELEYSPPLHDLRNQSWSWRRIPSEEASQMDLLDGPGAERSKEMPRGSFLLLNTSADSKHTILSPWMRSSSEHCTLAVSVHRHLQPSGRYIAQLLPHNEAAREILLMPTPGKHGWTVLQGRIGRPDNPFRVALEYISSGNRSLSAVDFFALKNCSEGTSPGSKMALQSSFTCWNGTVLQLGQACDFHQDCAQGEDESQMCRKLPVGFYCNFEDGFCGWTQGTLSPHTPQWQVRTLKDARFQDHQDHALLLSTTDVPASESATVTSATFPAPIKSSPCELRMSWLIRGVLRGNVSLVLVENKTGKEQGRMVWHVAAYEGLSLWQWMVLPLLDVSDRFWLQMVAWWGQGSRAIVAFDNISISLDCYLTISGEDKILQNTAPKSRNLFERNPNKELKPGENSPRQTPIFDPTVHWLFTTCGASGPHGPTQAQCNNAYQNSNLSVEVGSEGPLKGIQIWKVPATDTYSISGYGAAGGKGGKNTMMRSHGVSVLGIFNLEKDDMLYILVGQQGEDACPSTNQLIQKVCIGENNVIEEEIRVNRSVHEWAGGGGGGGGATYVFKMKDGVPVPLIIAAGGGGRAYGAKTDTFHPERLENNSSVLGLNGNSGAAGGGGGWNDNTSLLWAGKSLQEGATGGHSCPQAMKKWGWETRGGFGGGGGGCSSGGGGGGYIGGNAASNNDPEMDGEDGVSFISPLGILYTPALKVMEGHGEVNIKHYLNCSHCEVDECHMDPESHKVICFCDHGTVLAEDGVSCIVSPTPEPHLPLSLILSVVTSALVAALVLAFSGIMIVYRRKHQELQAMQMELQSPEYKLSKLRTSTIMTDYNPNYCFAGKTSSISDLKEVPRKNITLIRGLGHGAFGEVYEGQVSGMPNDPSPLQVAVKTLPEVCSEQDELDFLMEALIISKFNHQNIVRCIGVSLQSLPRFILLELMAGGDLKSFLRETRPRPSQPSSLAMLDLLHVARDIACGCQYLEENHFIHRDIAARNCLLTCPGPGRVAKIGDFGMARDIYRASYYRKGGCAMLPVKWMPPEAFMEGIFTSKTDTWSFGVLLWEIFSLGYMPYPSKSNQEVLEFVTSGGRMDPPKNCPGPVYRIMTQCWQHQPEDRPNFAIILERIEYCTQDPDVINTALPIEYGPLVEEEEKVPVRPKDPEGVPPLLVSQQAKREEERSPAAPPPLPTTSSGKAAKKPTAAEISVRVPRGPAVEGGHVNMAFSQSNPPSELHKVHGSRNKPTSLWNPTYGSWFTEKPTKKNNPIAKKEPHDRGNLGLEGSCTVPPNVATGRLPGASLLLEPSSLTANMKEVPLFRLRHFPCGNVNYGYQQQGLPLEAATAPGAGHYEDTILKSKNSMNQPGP
- runDescription: Kinase assay, single dose inhibition (Millipore, 33P-ATP filter binding)
- Format: biochemical
- conditions: 0.1 μM test compound, 10 μM ATP; remaining activity relative to DMSO control = 100%
The reply should be a number in %, with the unit left off.

| substanceSmiles | valueUnit | Activity (control) % ALK (h) |
| --- | --- | --- |
| C=CC(=O)N1CCOc2ccc(Nc3ncc(Cl)c(Nc4ccccc4C(=O)C(=O)N(C)C)n3)cc21 | % | 5 |
| CCC(=O)Nc1cc(Nc2ncc(Cl)c(Nc3ccccc3C(=O)C(=O)N(C)C)n2)ccc1OCCN(C)C | % | 8 |
| C=CC(=O)Nc1cc(Nc2ncc(Cl)c(Nc3ccccc3C(=O)C(=O)NC)n2)ccc1OC | % | 47 |

# next compound below
ALK (h) (Homo sapiens (Human)) data for "C=CC(=O)Nc1cccc(Nc2ncc(Cl)c(Nc3ccccc3C(=O)C(=O)N(C)C)n2)c1" ; its Activity (control) % ALK (h): 28

----------
- System: HCC827 (EGFR Del) NSCLC cells
- runDescription: Cell proliferation assay (MTS cell viability)
- Type: cell-based
- conditions: Homo sapiens, 72 h; HCC827 cells, 3 days of exposure, MTS
Reported pIC50 values follow for various compounds
# pIC50 = -log10(concentration in molar units)

Measured pIC50 of "C=CC(=O)Nc1ccc(OC)c(Nc2ncc(Cl)c(Nc3ccccc3C(=O)C(=O)N(CC)CC)n2)c1" : 7.30

Measured pIC50 of "C/C=C/C(=O)Nc1ccc(OC)c(Nc2ncc(Cl)c(Nc3ccccc3C(=O)C(=O)N(C)C)n2)c1" : 5.98

Measured pIC50 of "C=CC(=O)Nc1cccc(Nc2ncc(Cl)c(Nc3ccccc3C(=O)C(=O)NC)n2)c1" : 6.57

Measured pIC50 of "C=CC(=O)Nc1cccc(Nc2ncc(Cl)c(Nc3ccccc3C(=O)C(=O)N(C)C)n2)c1" : 7.15

----------
- Test system: A549 (EGFR WT) NSCLC cells
- runDescription: Cell proliferation assay (MTS cell viability)
- Assay type: cell-based
- conditions: Homo sapiens, 72 h; A549 cells, 3 days of exposure, MTS
pIC50: −log10 of the molar value.
Reported pIC50 values follow for various compounds

| substanceSmiles | reported |
| --- | --- |
| C=CC(=O)Nc1cc(Nc2ncc(Cl)c(Nc3ccccc3C(=O)C(=O)NC)n2)ccc1OC | < 5.52 |
| COc1cc(N2CCC(N(C)C)CC2)ccc1Nc1ncc(Cl)c(Nc2ccccc2C(=O)C(N)=O)n1 | < 5.52 |
| C=C(CN1CCOCC1)C(=O)Nc1cccc(Nc2ncc(Cl)c(Nc3ccccc3C(=O)C(=O)N(C)C)n2)c1 | 7.40 |

Measured pIC50 of "COc1cc(N2CCC(N(C)C)CC2)ccc1Nc1ncc(Cl)c(Nc2ccccc2C(=O)C(=O)N(C)C)n1" : < 5.52

Measured pIC50 of "COc1cc(N2CCN(C)CC2)ccc1Nc1ncc(C(F)(F)F)c(Nc2ccccc2C(=O)C(=O)N2CCOCC2)n1" : < 5.52

----------
- testSystem: EGFR (h) (Homo sapiens (Human), UniProt P00533)
- runDescription: Kinase assay, single dose inhibition (Millipore, 33P-ATP filter binding)
- Format: biochemical
- conditions: 0.1 μM test compound, 10 μM ATP; remaining activity relative to DMSO control = 100%
measuredMetric: Activity (control) % EGFR (h) (%)
The reply should be a number in %, with the unit left off.

// worked examples, Activity (control) % EGFR (h) included
| compound | Activity (control) % EGFR (h) (%) |
| --- | --- |
| C=CC(=O)Nc1cccc(Nc2ncc(Cl)c(Nc3ccccc3C(=O)C(=O)N(C)C)n2)c1 | 106 |
| C=CC(=O)Nc1ccc(N2CCN(C)CC2)c(Nc2ncc(Cl)c(Nc3ccccc3C(=O)C(=O)N(C)C)n2)c1 | 106 |
| C=CC(=O)Nc1cc(Nc2ncc(Cl)c(Nc3ccccc3C(=O)C(=O)N(C)C)n2)ccc1N1CCN(C)CC1 | 109 |
| C=CC(=O)Nc1cc(Nc2ncc(C)c(Nc3ccccc3C(=O)C(=O)N(C)C)n2)ccc1OC | 110 |
| CCN(CC)C(=O)C(=O)c1ccccc1Nc1nc(Nc2ccc(N3CCN(C)CC3)c(OC)c2)ncc1Cl | 113 |

Measured Activity (control) % EGFR (h) of "COc1ccc(NC(=O)/C=C/CN2CCOCC2)cc1Nc1ncc(Cl)c(Nc2ccccc2C(=O)C(=O)N(C)C)n1" : 92

Measured Activity (control) % EGFR (h) of "COc1ccc(NC(=O)/C=C/CN(C)C)cc1Nc1ncc(Cl)c(Nc2ccccc2C(=O)C(=O)N(C)C)n1" : 101

Measured Activity (control) % EGFR (h) of "C=CC(=O)Nc1ccc(OC)c(Nc2ncc(Cl)c(Nc3ccccc3C(=O)C(=O)N3CCN(C)CC3)n2)c1" : 67

Measured Activity (control) % EGFR (h) of "C=CC(=O)Nc1cc(Nc2ncc(Cl)c(Nc3ccccc3C(=O)C(=O)N(C)C)n2)c(OC)cc1F" : 107

Measured Activity (control) % EGFR (h) of C=CC(=O)Nc1cccc(Nc2nc(Nc3ccc(N4CCN(C(C)=O)CC4)cc3OC)ncc2C(F)(F)F)c1 [CO-1686, reference compound] : 92

Measured Activity (control) % EGFR (h) of "C=C(CN1CCCC1)C(=O)Nc1ccc(OC)c(Nc2ncc(Cl)c(Nc3ccccc3C(=O)C(=O)N(C)C)n2)c1" : 74

Measured Activity (control) % EGFR (h) of "COc1cc(Nc2ncc(Cl)c(Nc3ccccc3C(=O)C(=O)N(C)C)n2)ccc1N1CCOCC1" : 113

Measured Activity (control) % EGFR (h) of "C=C(CN1CCCCC1)C(=O)Nc1cc(Nc2ncc(Cl)c(Nc3ccccc3C(=O)C(=O)N(C)C)n2)ccc1N1CCOCC1" : 104

Measured Activity (control) % EGFR (h) of "COc1cc(Nc2ncc(Cl)c(Nc3ccccc3C(=O)C(=O)N(C)C)n2)ccc1N1CCC(N(C)C)CC1" : 82

Measured Activity (control) % EGFR (h) of "C=C(CN(C)C)C(=O)Nc1ccc(OC)c(Nc2ncc(Cl)c(Nc3ccccc3C(=O)C(=O)N(C)C)n2)c1" : 68

Measured Activity (control) % EGFR (h) of "C=C(CN1CCOCC1)C(=O)Nc1cccc(Nc2ncc(Cl)c(Nc3ccccc3C(=O)C(=O)N(C)C)n2)c1" : 85
